Experiment: Mouse PK test of peptides (intravenous and oral administration)
Settings: male, C57BL/6J, in vivo, iv, 20 mg/kg
Positions of bridges follow the written chain, without caps; N, C: chain ends. Non-standard residues stand in square brackets, D forms with d. Residues, ends and D or L forms follow the SMILES beside them. *: point of attachment. NMeF = CN[C@@H](Cc1ccccc1)C(=O)O; NMeI = CC[C@H](C)[C@H](NC)C(=O)O; NMeL = CN[C@@H](CC(C)C)C(=O)O; NMeA = CN[C@@H](C)C(=O)O; Piperidide = C1CCN(*)CC1; NPrGly = CCCNCC(=O)O; Sar = CNCC(=O)O; tBu = CC(C)(C)*
Give half-life for every item shown.
One number for each entry, in h.

[
  {
    "molecule": "CC(C)C[C@@H]1NC(=O)[C@H](Cc2ccccc2)N(C)C(=O)[C@H](Cc2ccccc2)N(C)C(=O)[C@H](CC(C)C)NC(=O)[C@H](C)N(C)C(=O)[C@H]([C@@H](C)O)NC(=O)[C@H](C)N(C)C(=O)C[C@@H](C(=O)N2CCCCC2)NC(=O)[C@H](CC(C)C)N(C)C1=O [DP-125] ([NMeA]T[NMeA]L[NMeF][NMeF]L[NMeL]D-Piperidide; lactam N-9)",
    "half-life (h)": 1.44
  },
  {
    "molecule": "CC[C@H](C)[C@H]1C(=O)N[C@H](C(=O)N2CCCCC2)CC(=O)N[C@H](C(C)C)C(=O)N(C)[C@@H](Cc2ccccc2)C(=O)N(C)[C@@H](CC(C)C)C(=O)N[C@@H]([C@@H](C)O)C(=O)N(C)CC(=O)N(C)[C@@H](CC(C)C)C(=O)N[C@@H](COC(C)(C)C)C(=O)N1C [DP-265] ([dV][NMeF][NMeL]T[Sar][NMeL]S(tBu)[NMeI]D-Piperidide; lactam N-9)",
    "half-life (h)": 1.82
  },
  {
    "molecule": "CCCN1CC(=O)N(C)[C@@H](CC(C)C)C(=O)N[C@@H](COC(C)(C)C)C(=O)N(C)[C@@H](CC(C)C)C(=O)N[C@H](C(=O)N2CCCCC2)CC(=O)N[C@H](C)C(=O)N(C)[C@@H](C)C(=O)N(C)[C@@H](Cc2ccccc2)C(=O)N(C)[C@@H](CC(C)C)C(=O)N[C@@H]([C@@H](C)O)C1=O [DP-547] ([dA][NMeA][NMeF][NMeL]T[NPrGly][NMeL]S(tBu)[NMeL]D-Piperidide; lactam N-10)",
    "half-life (h)": 1.1
  }
]

Shift focus to the following entry.
Exercise: For CC[C@H](C)[C@H](NC(=O)[C@@H]1CCCN1C(=O)[C@@H]1CC(=O)N[C@@H](C)C(=O)N[C@@H](CC(C)C)C(=O)N(C)[C@@H]([C@@H](C)CC)C(=O)N[C@@H](C(C)C)C(=O)N(C)[C@@H](Cc2ccccc2)C(=O)N[C@@H](CC(C)C)C(=O)N(C)[C@@H](Cc2ccccc2)C(=O)N1)C(=O)N1CCCCC1 [DP-965] (AL[NMeI]V[NMeF]L[NMeF]DPI-Piperidide; lactam N-8) , what is its reported half-life?
Key: 2.99

###

Test: PAMPA (parallel artificial membrane permeability assay)
Assay type: in vitro ADME
Details: PAMPA; membrane permeation rate (Pe); 50 mM MOPSO buffer pH 6.5 with 5.0% glycocholic acid, 37° C., 18 hours; read-out: iPAMPA Pe
Starred links: 1 amine or outer side, 2 acyl side, 3 side chain; linkers in the order of their positions; H or OH if unused. Positions of bridges follow the written chain, without caps; N, C: chain ends. Non-standard residues stand in square brackets, D forms with d. Residues, ends and D or L forms follow the SMILES beside them. *: point of attachment. NMeF = CN[C@@H](Cc1ccccc1)C(=O)O; NMeI = CC[C@H](C)[C@H](NC)C(=O)O; NMeβAla = CN(CCC(=O)[*:2])[*:1]; NMeL = CN[C@@H](CC(C)C)C(=O)O; NMeV = CN[C@H](C(=O)O)C(C)C; NMeA = CN[C@@H](C)C(=O)O; Piperidide = C1CCN(*)CC1; dNMeA = CN[C@H](C)C(=O)O; Sar = CNCC(=O)O
quantity.measured: Papp at 18 hours, 50 µM (×10⁻⁶ cm/s)
One number for each entry, in ×10⁻⁶ cm/s.

[
  {
    "molecule": "CC(C)C[C@H]1C(=O)N(C)[C@@H](Cc2ccccc2)C(=O)N(C)[C@@H](CC(C)C)C(=O)N[C@@H](Cc2ccccc2)C(=O)N[C@@H]([C@@H](C)O)C(=O)N(C)[C@@H](C)C(=O)N[C@H](C(=O)N2CCCCC2)CC(=O)N(C)CCC(=O)N[C@@H](C)C(=O)N1C [DP-153] ([NMeβAla]A[NMeL][NMeF][NMeL]FT[NMeA]D-Piperidide; lactam N-9)",
    "value.reported": 26
  },
  {
    "molecule": "CC[C@H](C)[C@@H]1NC(=O)[C@H](CC(C)C)N(C)C(=O)[C@H](CC(C)C)N(C)C(=O)[C@H](C)N(C)C(=O)[C@H]([C@@H](C)O)NC(=O)[C@H](Cc2ccccc2)N(C)C(=O)[C@@H](C)N(C)C(=O)C[C@@H](C(=O)N(C)[C@@H](Cc2ccccc2)C(=O)N(C)[C@@H](Cc2ccccc2)C(=O)N[C@@H](C)C(=O)N2CCCCC2)NC(=O)[C@H](C(C)C)N(C)C1=O [DP-399] ([dNMeA][NMeF]T[NMeA][NMeL][NMeL]I[NMeV]D[NMeF][NMeF]A-Piperidide; lactam N-9)",
    "value.reported": 0.89
  }
]

Exercise: For CC[C@H](C)[C@@H](C(=O)N[C@@H](Cc1ccccc1)C(=O)N1CCCCC1)N(C)C(=O)[C@@H]1CC(=O)N(C)[C@H](C)C(=O)N(C)[C@@H](CC(C)C)C(=O)N[C@@H](Cc2ccccc2)C(=O)N[C@@H]([C@@H](C)O)C(=O)N(C)CC(=O)N(C)[C@@H](C)C(=O)N(C)[C@@H](C(C)C)C(=O)N[C@@H](C)C(=O)N(C)[C@@H](CC(C)C)C(=O)N[C@@H](CC(C)C)C(=O)N1 [DP-583] ([dNMeA][NMeL]FT[Sar][NMeA][NMeV]A[NMeL]LD[NMeI]F-Piperidide; lactam N-11) , what is its reported Papp at 18 hours, 50 µM?
Key: 25
